Data provenance is PubChem BioAssay AID1996.

- protocol.conditions: buffer; pH 7.4; 200.0 µM
reported.metric: solubility kinetic

Examples from the recorded data:
COc1ccc(OC)c([N+](=O)[O-])c1C(N)=O	> 33.9 µg/mL
O=C(NCc1ccco1)C(=O)N1CCCC1	> 33.3 µg/mL
Cc1onc(-c2ccccc2Cl)c1C(=O)N1CCCCCC1	> 47.8 µg/mL

Continue with the next compound.
Field solubility kinetic (entry `CCCC/C(O)=C1\C(=O)CC(C)(C)CC1=Nc1ccc(N)cc1` ) reads > 47.2 µg/mL

----------
// values below are reported solubility kinetic
- protocol.conditions: buffer; pH 7.4; 200.0 µM
Report the figure in µg/mL without appending any unit label.

Sample records with solubility kinetic:
O=C(O)C1C2C=CC(C2)C1C(=O)NCc1ccco1 (stereo unspecified)	36.2
COc1ccc(OC)c(NC(=O)c2cc3c(cc2Cl)N2CCCCCC2=NS3(=O)=O)c1	3.7

Kindly consider the entry below.
The recorded solubility kinetic for `CCOCCCNC(=O)/C(C#N)=C/c1ccc(C(=O)OC)cc1` is 19.1
